Give inhibition for every item shown.
Target: UniProt E9AFX2
Sequence (E9AFX2 whole entry): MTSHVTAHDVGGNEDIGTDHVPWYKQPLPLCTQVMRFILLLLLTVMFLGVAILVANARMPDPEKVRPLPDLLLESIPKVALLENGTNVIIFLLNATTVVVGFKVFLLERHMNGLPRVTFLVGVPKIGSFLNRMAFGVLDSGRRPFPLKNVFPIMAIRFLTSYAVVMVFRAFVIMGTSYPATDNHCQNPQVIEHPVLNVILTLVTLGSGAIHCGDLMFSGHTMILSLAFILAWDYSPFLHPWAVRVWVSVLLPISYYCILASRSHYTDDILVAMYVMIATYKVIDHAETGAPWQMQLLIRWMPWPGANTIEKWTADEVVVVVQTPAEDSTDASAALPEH
Assay: biochemical
Format: biochemical
Set-up: dose or concentration left out as unconfirmed
Settings: screening of NINDS set, sheet Screen 1; read-out: inhibition LmjIPCS

Item COc1c(N2CCNC(C)C2)c(F)cc2c(=O)c(C(=O)O)cn(C3CC3)c12 (stereo not drawn) has what recorded inhibition?
2.29%

Could you do the same for COc1ccc(/C=C/C(=O)Nc2ccccc2C(=O)O)cc1OC , please?
6.57%

Lookup Nc1ccc(C(=O)NCC(=O)O)cc1
7%

Same again, this time with CCOC(=O)NNc1nncc2ccccc12
2%

Repeat for the following compound: C=N[C@@H](C(=O)N[C@@H]1C(=O)N2[C@@H]1SC(C)(C)[C@@H]2C(=O)O)c1ccccc1
10%

Please answer likewise for CC(C)(C)NCC(O)c1cc(O)cc(O)c1 (stereo not drawn)
9%

How about this compound: CC1(C)S[C@@H]2[C@H](N3C(=O)[C@@H](c4ccccc4)NC3(C)C)C(=O)N2[C@H]1C(=O)O
2%

Also CC(CN(C)C)CN1c2ccccc2CCc2ccccc21 (stereo not drawn) , if possible.
2%

What do you get for N[C@H](Cc1ccccc1)C(=O)O ?
9%

Then O=C(COc1ccc(Cl)cc1)N1CCN(Cc2ccc3c(c2)OCO3)CC1 [FIPEXIDE] ?
2.64%

Next compound: C1N2CN3CN1CN(C2)C3
6%

How about this compound: CN(CCOc1ccc(CC2SC(=O)NC2=O)cc1)c1ccccn1 (stereo not drawn)
2.64%

What do you have for C[N+]1(CCCCC[N+]2(C)CCCC2)CCCC1 ?
11%

Input COC(=O)Nc1nc2ccc([S+]([O-])c3ccccc3)cc2[nH]1 (stereo not drawn)
10%

And CC1(C)OC(=O)NC1=O ?
6.6%

Quick one: CC(=O)Oc1ccc2c(c1)CCC1C2CC[C@]2(C)C(=O)CCC12 (stereo partly drawn) [ESTRONE ACETATE]
8.56%

Do the same for Cc1c(Cl)cccc1Nc1ccccc1C(=O)O please
4.68%

Could you do the same for COc1cc(OC)c2ccc(=O)oc2c1 , please?
2.18%

Similarly, NCCSSCCN ?
6.34%

Likewise for CC(=O)N[C@@H](Cc1c[nH]c2ccccc12)C(N)=O [ACETYLTRYPTOPHANAMIDE] ?
1.65%

Now give it for CC[C@H]1OC(=O)[C@H](C)[C@@H](O[C@H]2C[C@@](C)(OC)[C@@H](O)[C@H](C)O2)[C@H](C)[C@@H](O[C@@H]2O[C@H](C)C[C@H](N(C)C)[C@H]2O)[C@](C)(OC)C[C@@H](C)C(=O)[C@H](C)[C@@H](O)[C@]1(C)O too.
5.71%
